The reported measurements were obtained from paper PMC11181328.

- Test system: male Swiss Webster mice
- procedure.summary: Warm-water tail immersion assay, agonism (single dose screen and potency)
- Type: in vivo, mouse
- experimental.parameters: Mus musculus, sc, read-out: potency ED50 [95% CI] mg/kg; s.c., 20 min prior to tail withdrawal latency measurement, male Swiss Webster mice
compounds and their reported ED50
Value expressed in mg/kg; do not type the unit.

Completed entries (count: 2):
CN(C(=O)CCc1ccco1)[C@H]1CC[C@@]2(O)[C@H]3Cc4ccc(O)c5c4[C@@]2(CCN3CC2CC2)[C@H]1O5 ... 0.123
CN(C(=O)/C=C/c1ccco1)[C@H]1CC[C@@]2(O)[C@H]3Cc4ccc(O)c5c4[C@@]2(CCN3CC2CC2)[C@H]1O5.Cl ... 0.051

Entry CN(C(=O)CCc1ccoc1)[C@@H]1CC[C@@]2(O)[C@H]3Cc4ccc(O)c5c4[C@@]2(CCN3CC2CC2)[C@H]1O5 , ED50 reported as 0.443

----------
- procedure.summary: in vitro
- experimental.parameters: human, s9
measured.parameter: microsomal CLint at 1 h, 1 µM (µL/min/mg)
Value expressed in µL/min/mg; do not type the unit.

Entry O=C(O)Cc1ccccc1Nc1c(Cl)cccc1Cl [diclofenac, reference compound] , microsomal CLint at 1 h, 1 µM reported as 37.4

----------
- study.system: DOR (Homo sapiens)
- Construct: expressed in transfected cells; membrane homogenate
- procedure.summary: [35S]-GTPγS functional assay, DOR
- Assay type: biochemical
- experimental.parameters: percent of SNC80 full agonist control
molecules and their reported Emax
Value expressed in %; do not type the unit.

Completed entries (count: 2):
CN(C(=O)CCc1ccco1)[C@H]1CC[C@@]2(O)[C@H]3Cc4ccc(O)c5c4[C@@]2(CCN3CC2CC2)[C@H]1O5 [Compound 13] ... 63.1
CN(C(=O)CCc1ccoc1)[C@@H]1CC[C@@]2(O)[C@H]3Cc4ccc(O)c5c4[C@@]2(CCN3CC2CC2)[C@H]1O5 [Compound 7] ... 51.4

Entry CN(C(=O)CCc1ccoc1)[C@H]1CC[C@@]2(O)[C@H]3Cc4cccc5c4[C@@]2(CCN3CC2CC2)[C@H]1O5 [Compound 1] , Emax reported as 56.4

Entry CN(C(=O)CCc1ccoc1)[C@@H]1CC[C@@]2(O)[C@H]3Cc4cccc5c4[C@@]2(CCN3CC2CC2)[C@H]1O5 [Compound 3] , Emax reported as 66.9

Entry CN(C(=O)CCc1ccoc1)[C@H]1CC[C@@]2(O)[C@H]3Cc4ccc(O)c5c4[C@@]2(CCN3CC2CC2)[C@H]1O5 [Compound 5] , Emax reported as 68.3

----------
compounds and their reported pEC50
- study.system: KOR (Mus musculus)
- Construct: membrane homogenate
- procedure.summary: [35S]-GTPγS functional assay, KOR
- experimental.parameters: mKOR-CHO membranes
Bear in mind: pEC50 is minus log10 of a mol/L concentration; give just that figure.

Entry CN(C(=O)CCc1ccco1)[C@H]1CC[C@@]2(O)[C@H]3Cc4cccc5c4[C@@]2(CCN3CC2CC2)[C@H]1O5 [Compound 9] , pEC50 reported as 7.73

----------
compounds and their reported pKi
- study.system: MOR (Mus musculus, UniProt P42866)
- procedure.summary: Competitive radioligand binding assay, MOR
- Design: expressed in transfected cells; membrane homogenate
Bear in mind: pKi is minus log10 of a mol/L concentration; give just that figure.

The reported MOR (Mus musculus, UniProt P42866) pKi of O=C(CCc1ccoc1)N[C@H]1CC[C@@]2(O)[C@H]3Cc4cccc5c4[C@@]2(CCN3CC2CC2)[C@H]1O5 [Compound 2] is 7.26

The reported MOR (Mus musculus, UniProt P42866) pKi of CN(C(=O)CCc1ccco1)[C@@H]1CC[C@@]2(O)[C@H]3Cc4cccc5c4[C@@]2(CCN3CC2CC2)[C@H]1O5 [Compound 11] is 7.03

The reported MOR (Mus musculus, UniProt P42866) pKi of CN(C(=O)/C=C/c1ccco1)[C@@H]1CC[C@@]2(O)[C@H]3Cc4ccc(O)c5c4[C@@]2(CCN3CC2CC2)[C@H]1O5.Cl [Compound 23] is 9.11

----------
compounds and their reported pKi
- study.system: KOR (Mus musculus)
- Construct: expressed in transfected cells; membrane homogenate
- procedure.summary: Competitive radioligand binding assay, KOR
Bear in mind: pKi is minus log10 of a mol/L concentration; give just that figure.

CN(C(=O)CCc1ccoc1)[C@H]1CC[C@@]2(O)[C@H]3Cc4ccc(O)c5c4[C@@]2(CCN3CC2CC2)[C@H]1O5 ... 9.89
CN(C(=O)CCc1ccco1)[C@@H]1CC[C@@]2(O)[C@H]3Cc4cccc5c4[C@@]2(CCN3CC2CC2)[C@H]1O5 ... 7.30
CN(C(=O)CCc1ccco1)[C@@H]1CC[C@@]2(O)[C@H]3Cc4ccc(O)c5c4[C@@]2(CCN3CC2CC2)[C@H]1O5 ... 9.49
O=C(/C=C/c1ccco1)N[C@H]1CC[C@@]2(O)[C@H]3Cc4cccc5c4[C@@]2(CCN3CC2CC2)[C@H]1O5 ... 6.60
O=C(/C=C/c1ccco1)N[C@H]1CC[C@@]2(O)[C@H]3Cc4ccc(O)c5c4[C@@]2(CCN3CC2CC2)[C@H]1O5 ... 8.97
O=C(CCc1ccco1)N[C@@H]1CC[C@@]2(O)[C@H]3Cc4cccc5c4[C@@]2(CCN3CC2CC2)[C@H]1O5 ... 7.63

Entry O=C(CCc1ccoc1)N[C@H]1CC[C@@]2(O)[C@H]3Cc4cccc5c4[C@@]2(CCN3CC2CC2)[C@H]1O5 , pKi reported as 6.79

Entry CN(C(=O)CCc1ccco1)[C@H]1CC[C@@]2(O)[C@H]3Cc4ccc(O)c5c4[C@@]2(CCN3CC2CC2)[C@H]1O5 , pKi reported as 9.92

Entry O=C(CCc1ccco1)N[C@H]1CC[C@@]2(O)[C@H]3Cc4cccc5c4[C@@]2(CCN3CC2CC2)[C@H]1O5 , pKi reported as 7.13

Entry CN(C(=O)/C=C/c1ccco1)[C@@H]1CC[C@@]2(O)[C@H]3Cc4cccc5c4[C@@]2(CCN3CC2CC2)[C@H]1O5 , pKi reported as 8.39

Entry CN(C(=O)CCc1ccoc1)[C@@H]1CC[C@@]2(O)[C@H]3Cc4cccc5c4[C@@]2(CCN3CC2CC2)[C@H]1O5 , pKi reported as 7.46

Entry CN(C(=O)CCc1ccco1)[C@H]1CC[C@@]2(O)[C@H]3Cc4cccc5c4[C@@]2(CCN3CC2CC2)[C@H]1O5 , pKi reported as 9.00

Entry O=C(/C=C/c1ccco1)N[C@@H]1CC[C@@]2(O)[C@H]3Cc4ccc(O)c5c4[C@@]2(CCN3CC2CC2)[C@H]1O5 , pKi reported as 9.77

----------
- procedure.summary: Drug distribution study (brain and plasma, LC-MS/MS)
- Format: in vivo, mouse
- experimental.parameters: Swiss Webster, mouse, brain, sc; 0.1 mg/kg s.c., 5 min; read-out: B/P (brain-to-plasma concentration ratio)
measured.parameter: Kp at 5 min
Respond using a number only.

Entry CN(C(=O)/C=C/c1ccco1)[C@@H]1CC[C@@]2(O)[C@H]3Cc4ccc(O)c5c4[C@@]2(CCN3CC2CC2)[C@H]1O5.Cl , Kp at 5 min reported as 0.05

----------
- procedure.summary: Drug distribution study (brain and plasma, LC-MS/MS)
- Format: in vivo, mouse
- experimental.parameters: Swiss Webster, mouse, brain, sc; 0.1 mg/kg s.c., 10 min; read-out: B/P (brain-to-plasma concentration ratio)
measured.parameter: Kp at 10 min
Respond using a number only.

Entry CN(C(=O)/C=C/c1ccco1)[C@@H]1CC[C@@]2(O)[C@H]3Cc4ccc(O)c5c4[C@@]2(CCN3CC2CC2)[C@H]1O5.Cl [Compound 23] , Kp at 10 min reported as 0.762

----------
- study.system: DOR (Homo sapiens, UniProt P41143)
- Construct: expressed in transfected cells; membrane homogenate
- procedure.summary: [35S]-GTPγS functional assay, DOR
- Assay type: biochemical
- experimental.parameters: percent of SNC80 full agonist control
measured.parameter: Emax (%)
Value expressed in %; do not type the unit.

Completed entries (count: 3):
CN(C(=O)CCc1ccco1)[C@@H]1CC[C@@]2(O)[C@H]3Cc4ccc(O)c5c4[C@@]2(CCN3CC2CC2)[C@H]1O5 ... 38.6
CN(C(=O)CCc1ccco1)[C@@H]1CC[C@@]2(O)[C@H]3Cc4cccc5c4[C@@]2(CCN3CC2CC2)[C@H]1O5 ... 61.7
O=C(/C=C/c1ccco1)N[C@H]1CC[C@@]2(O)[C@H]3Cc4cccc5c4[C@@]2(CCN3CC2CC2)[C@H]1O5 ... 75

Shifting focus to the compound that follows.
The reported DOR (Homo sapiens, UniProt P41143) Emax of O=C(CCc1ccco1)N[C@@H]1CC[C@@]2(O)[C@H]3Cc4cccc5c4[C@@]2(CCN3CC2CC2)[C@H]1O5 is 71
